Taken from patent US12139508B2.

Assay: Pharmacokinetic assay in Balb/c mice (plasma and brain tissue)
Assay type: in vivo
Conditions: mouse, po; brain tissue, 5 mg/kg p.o., male Balb/c mice; read-out: Plasma concentration Cmax
Answer not met if Cmax is under 800 ng/mL, and met if it is 800 ng/mL or more.

compound=C[C@@]1(O)CC[C@H]2[C@H](CC[C@@H]3[C@@H]2CC[C@@]2(C)[C@H]3[C@@H]3C[C@@H]3[C@@H]2C(=O)Cn2ccc(C(F)(F)F)n2)C1 labelvalue="not met"
compound=CC[C@@H]1C[C@H](C(=O)Cn2ccnn2)[C@@]2(C)CC[C@H]3[C@@H](CC[C@@H]4C[C@](C)(O)CC[C@@H]43)[C@H]12 labelvalue=met
compound=C[C@@]1(O)CC[C@H]2[C@H](CC[C@@H]3[C@@H]2CC[C@@]2(C)[C@H]3[C@@H]3C[C@@H]3[C@@H]2C(=O)Cn2cc(C#N)cn2)C1 labelvalue="not met"
compound=C[C@@]1(O)CC[C@H]2[C@H](CC[C@@H]3[C@@H]2CC[C@@]2(C)[C@H]3[C@H](C3CC3)C[C@@H]2C(=O)Cn2ccnn2)C1 labelvalue=met
compound=C[C@@H]1C[C@H](C(=O)Cn2ccc(C#N)n2)[C@@]2(C)CC[C@H]3[C@@H](CC[C@@H]4C[C@](C)(O)CC[C@@H]43)[C@H]12 labelvalue=met
compound=C[C@@]1(O)CC[C@H]2[C@H](CC[C@@H]3[C@@H]2CC[C@@]2(C)[C@H]3[C@H](C3CC3)C[C@@H]2C(=O)Cn2nccn2)C1 labelvalue="not met"
compound=Cc1nnn(CC(=O)[C@H]2C[C@@H](C3CC3)[C@H]3[C@@H]4CC[C@@H]5C[C@](C)(O)CC[C@@H]5[C@H]4CC[C@@]32C)n1 labelvalue=met
compound="C[C@@]1(O)CC[C@H]2[C@H](CC[C@@H]3[C@@H]2CC[C@]2(C)C(C(=O)Cn4cc(C#N)cn4)C[C@@H](C4CC4)[C@@H]32)C1 (some centres unmarked)" labelvalue="not met"
compound=C[C@@H]1C[C@H](C(=O)Cn2nc(C#N)cc2C#N)[C@@]2(C)CC[C@H]3[C@@H](CC[C@@H]4C[C@](C)(O)CC[C@@H]43)[C@H]12 labelvalue="not met"
compound=CC[C@@H]1C[C@H](C(=O)Cn2ccc(C#N)n2)[C@@]2(C)CC[C@H]3[C@@H](CC[C@@H]4C[C@](C)(O)CC[C@@H]43)[C@H]12 labelvalue="not met"

###

Assay: Pharmacokinetic assay in Balb/c mice (plasma and brain tissue)
Assay type: in vivo
Details: mouse, po; brain tissue, 5 mg/kg p.o., male Balb/c mice; read-out: Peak time tmax
assayReadout: Tmax (h)

structuresmilesstring=C[C@@H]1C[C@H](C(=O)Cn2cc(C#N)c(Cl)n2)[C@@]2(C)CC[C@H]3[C@@H](CC[C@@H]4C[C@](C)(O)CC[C@@H]43)[C@H]12 assayreadout=Tmax recordedmeasurement=1
structuresmilesstring=C[C@@]1(O)CC[C@H]2[C@H](CC[C@@H]3[C@@H]2CC[C@@]2(C)[C@H]3[C@@H]3C[C@@H]3[C@@H]2C(=O)Cn2cc(C(F)(F)F)cn2)C1 assayreadout=Tmax recordedmeasurement=0.5
structuresmilesstring=CC[C@@H]1C[C@H](C(=O)Cn2ccc(C#N)n2)[C@@]2(C)CC[C@H]3[C@@H](CC[C@@H]4C[C@](C)(O)CC[C@@H]43)[C@H]12 assayreadout=Tmax recordedmeasurement=1
structuresmilesstring=C[C@@]1(O)CC[C@H]2[C@H](CC[C@@H]3[C@@H]2CC[C@@]2(C)[C@H]3[C@@H]3C[C@@H]3[C@@H]2C(=O)Cn2ccc(C(F)(F)F)n2)C1 assayreadout=Tmax recordedmeasurement=0.5
structuresmilesstring=C[C@@]1(O)CC[C@H]2[C@H](CC[C@@H]3[C@@H]2CC[C@@]2(C)[C@H]3[C@H](C3CC3)C[C@@H]2C(=O)Cn2ccnn2)C1 assayreadout=Tmax recordedmeasurement=1

###

Experiment: Pharmacokinetic assay in Balb/c mice (plasma and brain tissue)
Assay type: in vivo
Conditions: mouse, po; brain tissue, 5 mg/kg p.o., male Balb/c mice; read-out: Mean residence time MRT
Answer no (0) if MRT is under 4 h, and yes (1) if it is 4 h or more.

compound="C[C@@]1(O)CC[C@H]2[C@H](CC[C@@H]3[C@@H]2CC[C@]2(C)C(C(=O)Cn4cc(C#N)cn4)C[C@@H](C4CC4)[C@@H]32)C1 (stereo partly shown) [Example 71]" labelvalue="no (0)"
compound="C[C@@]1(O)CC[C@H]2[C@H](CC[C@@H]3[C@@H]2CC[C@@]2(C)[C@H]3[C@H](C3CC3)C[C@@H]2C(=O)Cn2nc(C#N)cc2C#N)C1 [Example 143]" labelvalue="yes (1)"
compound="C[C@@]1(O)CC[C@H]2[C@H](CC[C@@H]3[C@@H]2CC[C@@]2(C)[C@H]3[C@H](C3CC3)C[C@@H]2C(=O)Cn2ccnn2)C1 [Example 145]" labelvalue="no (0)"
compound="Cc1nnn(CC(=O)[C@H]2C[C@@H](C3CC3)[C@H]3[C@@H]4CC[C@@H]5C[C@](C)(O)CC[C@@H]5[C@H]4CC[C@@]32C)n1 [Example 74]" labelvalue="no (0)"
compound="C[C@@H]1C[C@H](C(=O)Cn2nc(C#N)cc2C#N)[C@@]2(C)CC[C@H]3[C@@H](CC[C@@H]4C[C@](C)(O)CC[C@@H]43)[C@H]12 [Example 135]" labelvalue="yes (1)"
compound="C[C@@]1(O)CC[C@H]2[C@H](CC[C@@H]3[C@@H]2CC[C@@]2(C)[C@H]3[C@@H]3C[C@@H]3[C@@H]2C(=O)Cn2cc([N+](=O)[O-])cn2)C1 [Example 103]" labelvalue="no (0)"

###

Tmax reference
Test: Pharmacokinetic assay in Balb/c mice (plasma and brain tissue)
Type: in vivo
Conditions: mouse, po; plasma, 5 mg/kg p.o., male Balb/c mice; read-out: Peak time tmax
assayReadout: Tmax (min)

structuresmilesstring=CC[C@@H]1C[C@H](C(=O)Cn2ccnn2)[C@@]2(C)CC[C@H]3[C@@H](CC[C@@H]4C[C@](C)(O)CC[C@@H]43)[C@H]12 recordedmeasurement=30
structuresmilesstring=C[C@@H]1C[C@H](C(=O)Cn2cc(C#N)cn2)[C@@]2(C)CC[C@H]3[C@@H](CC[C@@H]4C[C@](C)(O)CC[C@@H]43)[C@H]12 recordedmeasurement=60
structuresmilesstring=Cc1nnn(CC(=O)[C@H]2C[C@@H](C3CC3)[C@H]3[C@@H]4CC[C@@H]5C[C@](C)(O)CC[C@@H]5[C@H]4CC[C@@]32C)n1 recordedmeasurement=30

###

AUC(0-t) reference
Assay: Pharmacokinetic assay in Balb/c mice (plasma and brain tissue)
Type: in vivo
Settings: mouse, po; plasma, 5 mg/kg p.o., male Balb/c mice; read-out: Area under curve AUC0-t
assayReadout: AUC(0-t) (ng·h/mL)

structuresmilesstring=C[C@@]1(O)CC[C@H]2[C@H](CC[C@@H]3[C@@H]2CC[C@@]2(C)[C@H]3[C@H](C3CC3)C[C@@H]2C(=O)Cn2ccc(C#N)n2)C1 recordedmeasurement=2970
structuresmilesstring=C[C@@]1(O)CC[C@H]2[C@H](CC[C@@H]3[C@@H]2CC[C@@]2(C)[C@H]3[C@@H]3C[C@@H]3[C@@H]2C(=O)Cn2ncnn2)C1 recordedmeasurement=775
structuresmilesstring=C[C@@]1(O)CC[C@H]2[C@H](CC[C@@H]3[C@@H]2CC[C@@]2(C)[C@H]3[C@@H]3C[C@@H]3[C@@H]2C(=O)Cn2cc([N+](=O)[O-])cn2)C1 recordedmeasurement=1030
structuresmilesstring=C[C@@H]1C[C@H](C(=O)Cn2cc(C(F)(F)F)cn2)[C@@]2(C)CC[C@H]3[C@@H](CC[C@@H]4C[C@](C)(O)CC[C@@H]43)[C@H]12 recordedmeasurement=1300
structuresmilesstring=C[C@@H]1C[C@H](C(=O)Cn2nc(C#N)cc2C#N)[C@@]2(C)CC[C@H]3[C@@H](CC[C@@H]4C[C@](C)(O)CC[C@@H]43)[C@H]12 recordedmeasurement=4100
structuresmilesstring=C[C@@H]1C[C@H](C(=O)Cn2ccc(C#N)n2)[C@@]2(C)CC[C@H]3[C@@H](CC[C@@H]4C[C@](C)(O)CC[C@@H]43)[C@H]12 recordedmeasurement=1700
structuresmilesstring=CC[C@@H]1C[C@H](C(=O)Cn2ccc(C#N)n2)[C@@]2(C)CC[C@H]3[C@@H](CC[C@@H]4C[C@](C)(O)CC[C@@H]43)[C@H]12 recordedmeasurement=2780
structuresmilesstring=C[C@@H]1C[C@H](C(=O)Cn2cc(C#N)c(Cl)n2)[C@@]2(C)CC[C@H]3[C@@H](CC[C@@H]4C[C@](C)(O)CC[C@@H]43)[C@H]12 recordedmeasurement=4630
structuresmilesstring=CC[C@@H]1C[C@H](C(=O)Cn2ccc(C(F)(F)F)n2)[C@@]2(C)CC[C@H]3[C@@H](CC[C@@H]4C[C@](C)(O)CC[C@@H]43)[C@H]12 recordedmeasurement=662
structuresmilesstring=C[C@@]1(O)CC[C@H]2[C@H](CC[C@@H]3[C@@H]2CC[C@@]2(C)[C@H]3[C@H](C3CC3)C[C@@H]2C(=O)Cn2nc(C#N)cc2C#N)C1 recordedmeasurement=6290
